Assay: Lipophilicity, log D of compound in 1-octanol at pH 7.4 incubated for 4 hrs by HPLC-UV analysis
Format: physicochemical
Settings: 1-octanol / aqueous phase at pH 7.4, pH 7.4
measured_metric: logD at 4 h

Some compounds with known logD at 4 h results, for comparison:
[
  {
    "compound": "C[C@@H](c1ccc(Cl)cc1)N(C(=O)/C=C/CN(C)C)c1ccc(O[C@@H]2CC[C@@H](NC(=O)NC3CS(=O)(=O)C3)C2)c(F)c1",
    "result_value": 2.7
  },
  {
    "compound": "C=CC(=O)N(c1ccc(O[C@@H]2CC[C@@H](NC(=O)N[C@@H]3CCS(=O)(=O)C3)C2)c(F)c1)[C@@H](CC(N)=O)c1ccc(Cl)cc1",
    "result_value": 2.2
  }
]

A = C=C(Cl)C(=O)N(Cc1ccc(C(F)(F)F)cc1)c1ccc(O[C@@H]2CC[C@@H](N)C2)cc1 (racemic)
B = C=CC(=O)N(c1ccc(O[C@@H]2CC[C@@H](N)C2)c(F)c1)[C@@H](CC(C)(C)O)c1ccc(Cl)cc1
C = C=CC(=O)N(c1ccc(O[C@@H]2CC[C@@H](NC(=O)NCCN(C)C)C2)c(Cl)c1)[C@@H](C)c1ccc(Cl)cc1
// query List items by logD at 4 h in falling order. List the labels in the requested order.
// result C, A, B

* * *

Assay: Metabolic stability in mouse hepatocytes assessed as intrinsic clearance measured per 10^6 cells
Type: ADME, cell-based, Hepatocyte
Details: read-out: CLH
measured_metric: hepatocyte CLint (µL/min/1e6 cells)

Some compounds with known hepatocyte CLint results, for comparison:
[
  {
    "smiles_repr": "C=CC(=O)N(c1ccc(O[C@@H]2CC[C@@H](NC(=O)NCCN(C)C)C2)c(Cl)c1)[C@@H](C)c1ccc(Cl)cc1",
    "result_unit": "µL/min/1e6 cells",
    "hepatocyte CLint": 42
  },
  {
    "smiles_repr": "C[C@@H](c1ccc(Cl)cc1)N(C(=O)/C=C/CN(C)C)c1ccc(O[C@@H]2CC[C@@H](NC(=O)N[C@@H]3CCS(=O)(=O)C3)C2)c(F)c1",
    "result_unit": "µL/min/1e6 cells",
    "hepatocyte CLint": 17
  },
  {
    "smiles_repr": "C=CC(=O)N(c1ccc(O[C@@H]2CC[C@@H](NC(=O)N[C@@H]3CCS(=O)(=O)C3)C2)c(F)c1)[C@@H](C)c1ccc(Cl)cc1",
    "result_unit": "µL/min/1e6 cells",
    "hepatocyte CLint": 69
  },
  {
    "smiles_repr": "C=CC(=O)N(c1ccc(O[C@@H]2CC[C@@H](NC(=O)N[C@@H]3CCS(=O)(=O)C3)C2)c(Cl)c1)[C@@H](C)c1ccc(Cl)cc1",
    "result_unit": "µL/min/1e6 cells",
    "hepatocyte CLint": 42
  },
  {
    "smiles_repr": "C=CC(=O)N(c1ccc(O[C@@H]2CC[C@@H](NC(=O)N[C@@H]3CCS(=O)(=O)C3)C2)c(F)c1)[C@@H](CC(N)=O)c1ccc(Cl)cc1",
    "result_unit": "µL/min/1e6 cells",
    "hepatocyte CLint": 45
  }
]

a = C[C@@H](c1ccc(Cl)cc1)N(C(=O)/C=C/CN(C)C)c1ccc(O[C@@H]2CC[C@@H](NC(=O)NC3CS(=O)(=O)C3)C2)c(F)c1
b = C=CC(=O)N(c1ccc(O[C@@H]2CC[C@@H](NC(=O)N[C@@H]3CCS(=O)(=O)C3)C2)c(F)c1)[C@@H](CC(C)(C)O)c1ccc(Cl)cc1
c = C=CC(=O)N(c1ccc(O[C@@H]2CC[C@@H](NC(=O)NCC(C)(C)N(C)C)C2)c(F)c1)[C@@H](C)c1ccc(Cl)cc1
d = C=CC(=O)N(c1ccc(O[C@@H]2CC[C@@H](N)C2)c(F)c1)[C@@H](CC(C)(C)O)c1ccc(Cl)cc1
// query List items by hepatocyte CLint in falling order. List the labels in the requested order.
// result c, b, a, d

* * *

Biological target: UniProtKB P10415
Sequence (P10415 whole entry): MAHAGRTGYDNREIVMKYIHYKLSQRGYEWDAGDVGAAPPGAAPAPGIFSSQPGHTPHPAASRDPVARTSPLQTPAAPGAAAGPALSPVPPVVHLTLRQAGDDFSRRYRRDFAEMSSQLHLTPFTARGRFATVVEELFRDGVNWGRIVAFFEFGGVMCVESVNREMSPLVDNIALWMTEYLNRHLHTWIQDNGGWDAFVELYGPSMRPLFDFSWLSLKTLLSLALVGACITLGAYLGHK
pIC50: −log10 of the molar value.
measured_metric: pIC50

Summary for this compound, C[C@@H](c1ccc(Cl)cc1)N(C(=O)/C=C/CN(C)C)c1ccc(O[C@@H]2CC[C@@H](NC(=O)N[C@@H]3CCS(=O)(=O)C3)C2)c(F)c1 : pIC50 is < 4.52

* * *

Biological target: BCL2A1/BID (Homo sapiens, UniProt Q16548)
Sequence (Q16548 whole entry): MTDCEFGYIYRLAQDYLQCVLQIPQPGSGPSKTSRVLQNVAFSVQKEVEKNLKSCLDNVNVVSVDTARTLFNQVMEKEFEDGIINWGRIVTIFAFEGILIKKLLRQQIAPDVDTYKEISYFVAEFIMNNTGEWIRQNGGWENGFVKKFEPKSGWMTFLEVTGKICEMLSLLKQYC
Sequence (P55957 whole entry, further chain): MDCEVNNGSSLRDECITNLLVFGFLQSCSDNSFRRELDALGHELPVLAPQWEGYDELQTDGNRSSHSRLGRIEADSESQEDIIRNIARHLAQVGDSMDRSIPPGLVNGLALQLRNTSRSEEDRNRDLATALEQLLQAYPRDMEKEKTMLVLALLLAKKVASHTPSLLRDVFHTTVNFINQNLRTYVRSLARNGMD
Test: Inhibition of BFL-1/ BH3 (unknown origin) interaction incubated for 2 hrs by TR-FRET assay
measured_metric: IC50 (nM)

[
  {
    "smiles_repr": "CN1CCC[C@@H]1/C=C/C(=O)N(Cc1ccc(Cl)cc1)c1ccc(O[C@@H]2CC[C@@H](N)C2)cc1",
    "experimental_system": "BCL2A1/BID (Homo sapiens, UniProt Q16548)",
    "result_value": 240
  },
  {
    "smiles_repr": "C=CC(=O)N(c1ccc(O[C@@H]2CC[C@@H](NC(=O)CCCN(C)C)C2)cc1)[C@@H](C)c1ccc(Cl)cc1",
    "experimental_system": "BCL2A1/BID (Homo sapiens, UniProt Q16548)",
    "result_value": 74
  }
]

I = C=CC(=O)N(c1ccc(O[C@@H]2CC[C@@H](N)C2)c(C#N)c1)[C@@H](C)c1ccc(Cl)cc1
II = C=CC(=O)N(c1ccc(O[C@@H]2CC[C@@H](NC(=O)NCCN(C)C)C2)c(Cl)c1)[C@@H](C)c1ccc(Cl)cc1
III = C=CC(=O)N(c1ccc(O[C@@H]2CC[C@@H](N)C2)c(Cl)c1)[C@@H](C)c1ccc(Cl)cc1
IV = C=CC(=O)N(c1ccc(O[C@@H]2CC[C@@H](NC(=O)N[C@@H]3CCS(=O)(=O)C3)C2)c(F)c1)[C@@H](C)c1ccc(Cl)cc1
// query I would appreciate it if you could sort these 4 compounds by IC50, starting from the smallest number. List the labels in the requested order.
// result II, IV, I, III

* * *

Molecular target: Bcl-2-like protein 1 (Homo sapiens, UniProt Q07817)
Sequence (Q07817 whole entry): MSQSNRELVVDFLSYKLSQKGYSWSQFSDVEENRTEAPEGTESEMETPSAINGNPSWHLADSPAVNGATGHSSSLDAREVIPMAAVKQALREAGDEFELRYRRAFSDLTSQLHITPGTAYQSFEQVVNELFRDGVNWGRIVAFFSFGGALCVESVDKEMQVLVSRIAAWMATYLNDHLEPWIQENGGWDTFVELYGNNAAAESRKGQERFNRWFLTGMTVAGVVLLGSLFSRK
Listed molecules paired with reported IC50

The reported Bcl-2-like protein 1 (Homo sapiens, UniProt Q07817) IC50 of C[C@@H](c1ccc(Cl)cc1)N(C(=O)/C=C/CN(C)C)c1ccc(O[C@@H]2CC[C@@H](NC(=O)N[C@@H]3CCS(=O)(=O)C3)C2)c(F)c1 is > 30 µM

The reported Bcl-2-like protein 1 (Homo sapiens, UniProt Q07817) IC50 of C[C@@H](c1ccc(Cl)cc1)N(C(=O)/C=C/CN(C)C)c1ccc(O[C@@H]2CC[C@@H](NC(=O)NC3CS(=O)(=O)C3)C2)c(F)c1 is > 30 µM

* * *

Listed molecules paired with reported half-life
Assay: GSH reactivity in PBS buffer at pH 7.4 assessed as half life by LC-UV/MS analysis
Format: physicochemical
The reply should contain only the number, in h.

[
  {
    "molecule": "C=CC(=O)N(c1cc(F)c(O[C@@H]2CC[C@@H](N)C2)cc1C)[C@@H](C)c1ccc(Cl)cc1",
    "half-life (h)": 4.47
  }
]

Summary for this molecule, C=C(Cl)C(=O)N(Cc1ccc(C(F)(F)F)cc1)c1ccc(O[C@@H]2CC[C@@H](N)C2)cc1 (racemic) : half-life is 1.42

* * *

Test: Metabolic stability in rat hepatocytes assessed as intrinsic clearance measured per 10^6 cells
Type: ADME, cell-based, Hepatocyte
Conditions: hepatocytes
Listed compounds paired with reported hepatocyte CLint
The reply should contain only the number, in µL/min/1e6 cells.

[
  {
    "compound": "C=CC(=O)N(c1cc(F)c(O[C@@H]2CC[C@@H](N)C2)cc1C)[C@@H](C)c1ccc(Cl)cc1",
    "result_unit": "µL/min/1e6 cells",
    "hepatocyte CLint": 12
  }
]

Please examine the following record next.
Summary for this compound, C=C(Cl)C(=O)N(Cc1ccc(C(F)(F)F)cc1)c1ccc(O[C@@H]2CC[C@@H](N)C2)cc1 (racemic) : hepatocyte CLint is 52

* * *

Assay: Metabolic stability in human liver microsome assessed as intrinsic clearance
Assay type: ADME
Details: human liver microsomes, read-out: CLH
measured_metric: microsomal CLint (µL/min/mg)
The reply should contain only the number, in µL/min/mg.

Summary for this compound, C=C(Cl)C(=O)N(Cc1ccc(C(F)(F)F)cc1)c1ccc(O[C@@H]2CC[C@@H](N)C2)cc1 (racemic) : microsomal CLint is 7.8

Summary for this compound, C=CC(=O)N(c1cc(F)c(O[C@@H]2CC[C@@H](N)C2)cc1C)[C@@H](C)c1ccc(Cl)cc1 : microsomal CLint is 9.4

* * *

Assay: AUC in CD-1 mouse at 1 mg/kg, po or 0.5 mg/kg, iv measured upto 24 hrs by LC-MS/MS analysis
Assay type: ADME, organism-based
Settings: in vivo
measured_metric: AUC at 24 h (µM·h)

1 = C=CC(=O)N(c1ccc(O[C@@H]2CC[C@@H](NC(=O)N[C@@H]3CCS(=O)(=O)C3)C2)c(Cl)c1)[C@@H](C)c1ccc(Cl)cc1
2 = C=CC(=O)N(c1ccc(O[C@@H]2CC[C@@H](NC(=O)N[C@@H]3CCS(=O)(=O)C3)C2)c(F)c1)[C@@H](C)c1ccc(Cl)cc1
// query Sorting ascending by AUC at 24 h, which comes first: 1 or 2 ? Please reply using the label of the selected record.
// result 1
(1: 0.036 µM·h, 2: 0.19 µM·h)
